Tested on: RSV Long strain
PROTOCOL SUMMARY: Viral cytopathic effect (CPE) assay, anti-RSV activity
Type: cell-based, Respiratory Syncytial Virus
EXPERIMENTAL SETUP: human respiratory syncytial virus, 144 h, RSV Long strain (ATCC); cell viability after 6 days, Cell Counting kit-8
Assign EC50 to each entry below.
Numbers only, in µM.

Sample records with EC50:
-- ask // query EC50 value for entry "Cc1ccc2nc(N3CCS(=O)(=O)c4ccccc4C3)cc(N3CC[C@H](O)C3)c2c1"
-- reply 2.7

-- ask Could you do the same for "Cc1ccc2nc(N3CCC(F)(F)c4ccccc4C3)nc(NCC(F)(F)CN)c2c1" , please?
-- reply 5.97

-- ask Could you do the same for "CNCCNc1cc(N2CCS(=O)(=O)c3ccccc3C2)nc2ccc(Cl)cc12" , please?
-- reply 0.063

Please give EC50, item by item, for the list that follows.
1. Cc1ccc2nc(N3CCS(=O)(=O)c4ccccc4C3)cc(NCCNC3COC3)c2c1
2. Cc1ccc2nc(N3CCS(=O)(=O)c4ccccc4C3)cc(NCCN3CCNCC3)c2c1
3. Cc1ccc2nc(N3CCS(=O)(=O)c4ccccc4C3)cc(NCCS(C)(=N)=O)c2c1 (stereo not shown)
4. CNC(=O)CNc1cc(N2CCS(=O)(=O)c3ccccc3C2)nc2ccc(C)cc12
5. Cc1cccc2c(NCCCCCCCCCCN)cc(N3CCS(=O)(=O)c4ccccc4C3)nc12
6. Cc1ccc2nc(N3CCS(=O)(=O)c4ccccc4C3)nc(NCCO)c2c1
7. Cc1ccc2nc(N3CCS(=O)(=O)c4ccccc4C3)cc(NC3COC3)c2c1

-- reply
1: 0.031; 2: 0.149; 3: 8.78; 4: 0.264; 5: 0.764; 6: 0.081; 7: 0.101

Please give EC50, item by item, for the list that follows.
1. CC(=O)Nc1nc(N2CCS(=O)(=O)c3ccccc3C2)nc2ccc(C)cc12
2. CNCCNc1cc(N2CCCc3ccccc3C2)nc2ccccc12

-- reply
1. 0.797
2. 0.616

-- ask // query EC50 value for entry CO[C@@H]1CN(c2cc(N3CCS(=O)(=O)c4ccccc4C3)nc3ccc(C)cc23)C[C@H]1N (relative stereo)
-- reply 0.9
